# testProtocol: NCI Yeast Anticancer Drug Screen. Data for the bub3 strain (AID 167)
# conditionsUsed: S. cerevisiae bub3 mutant strain, at 5.0 µM (retest, dose inferred, filed as 0.5), hits give high values
Compounds without any hit were thinned out: in the full panel of roughly 79,000, 15% have a hit.
experimentalEndpoint: growth inhibition (%)
Express it in %; write the number only.

Some compounds with known growth inhibition results, for comparison:
{"compound": "C=C1C(O)C2(O)OCC34C(CC5C(C)=CC(=O)C(O)C5(C)C23)OC(=O)C(OC(=O)C/C=C(\\C)CCCCC)C14 (stereo not given)", "valueObserved": 75}
{"compound": "CC1(C)C/C(=N/NC(N)=S)C(=NO)/C(=N\\NC(N)=S)C1", "valueObserved": 0}

Note to self: growth inhibition recorded for C/C(=N/NC(=S)Nc1ccccc1Cl)c1ccccn1 was -37

NC1=NC(c2ccccc2)CC(c2cc(Cl)cc(Br)c2O)=N1 (stereo not given) has a reported growth inhibition of -1

growth inhibition recorded for this compound, O=C(O)c1ccccc1NC(c1ccccc1)c1ccc2cccnc2c1O (stereo not given) , is -17

Cc1cc2c(c(C(N)=O)c1C)-c1cccc(F)c1C2=O yielded growth inhibition of 2

Form: compound = CCSSC12CCCN1C(=O)C(C)N(C)C2=O (stereo not given) ; growth inhibition = 0

Given item CCOC(=O)N/N=C/c1ccc(N(C)CCC#N)cc1 , the value recorded as its growth inhibition is 22

response.value for CC(C)N(CCO)CC(O)Cn1cnc2c(N)ncnc21 (stereo not given) (tested in a mixture with another compound) (field: growth inhibition) = -8

Per the records, this compound ( CCCCOc1ccc(NC(=S)Nc2ccc(OCCN(CC)CC)cc2)cc1 ) has growth inhibition equal to 3

---

Recorded growth inhibition values for a group of molecules are listed next.
# testProtocol: NCI Yeast Anticancer Drug Screen. Data for the sgs1 mgt1 strain (AID 161);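 further: 0% = growth of cultures given vehicle only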
# conditionsUsed: S. cerevisiae sgs1 mgt1 strain, at 5.0 µM (retest, dose inferred, filed as 0.5), hits give high values
Compounds without any hit were thinned out: in the full panel of roughly 79,000, 15% have a hit.
Note: unit % is implicit; provide only the numeric part.

Worked cases, answers included:
{"cpdSmiles": "Oc1ccc(CCCCCc2ccc(O)cc2)cc1", "growth inhibition [%]": 17}
{"cpdSmiles": "[N-]=[N+]=Nc1c([N+](=O)[O-])c(=O)n(-c2ccccc2)c2ccccc12", "growth inhibition [%]": 0}

The value of growth inhibition measured for the molecule CC(C)C(=O)c1ccc2ccccc2c1O turned out to be -13

Form: molecule = CCCCCCCCCCCCCCC(=O)OCC[N+](C)(C)C ; growth inhibition = 45

// sample CCOC(=O)N/N=C/c1ccc(N(C)CCC#N)cc1 , its growth inhibition was -4

# growth inhibition (molecule: O=C(c1ccc(F)cc1)c1ccc(Cl)cc1Cl ) is 100

---

# testProtocol: NCI Yeast Anticancer Drug Screen. Data for the bub3 strain (AID 167)
# conditionsUsed: S. cerevisiae bub3 mutant strain, at 5.0 µM (retest, dose inferred, filed as 0.5), hits give high values
# Procedure: Growth inhibition of yeast strains with defined genetic alterations is measured as a screen for potential anti-cancer activity. Selected strains with alterations in DNA damage repair or cell cycle control were exposed to compounds and growth inhibition was measured relative to vehicle treated controls. The strain used in this assay is bub3
The panel holds about 79,000 compounds, 15% with a hit somewhere; the sample as a whole holds those more often.
experimentalEndpoint: growth inhibition (%)
Enter your answer as a number in %; do not include the unit.

These solved cases illustrate the format of a correct answer.
{"compound": "CCCN(CCC)CCNc1ccc(C)c2sc3ccccc3c(=O)c12", "unitsText": "%", "valueObserved": 35}
{"compound": "O=C(Nc1ncnc2c1ncn2C1CC(O)C(CO)O1)c1ccccc1 (stereo unspecified)", "unitsText": "%", "valueObserved": -2}

Recorded result, Cc1ccc(Cl)cc1NC(=O)N(C)CCOC(=O)Nc1cccc(Cl)c1 , growth inhibition: 23

Measured growth inhibition of N#CC(C#N)=c1c2nsnc2c(=C(C#N)C#N)c2nsnc12 : 60

Reported growth inhibition for CC(=O)Nc1ccc(C#N)c2ccccc12 was 21

The measured growth inhibition associated with COc1ccc(C(=O)Nc2ccccc2[N+](=O)[O-])cc1 reads -15

---

# testProtocol: NCI Yeast Anticancer Drug Screen. Data for the cln2 rad14 strain (AID 165);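 further: 0% = growth equal to vehicle treated cultures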
# conditionsUsed: S. cerevisiae cln2 rad14 strain, at 5.0 µM (retest, dose inferred, filed as 0.5), hits give high values
Compounds without any hit were thinned out: in the full panel of roughly 79,000, 15% have a hit.
We use 20% as the dividing line for growth inhibition: on or above the line is yes, below is no.

Please review the entries below; each comes with its answer.
{"compound": "c1ccc(CCC2=Nc3ccccc3CO2)cc1", "group": "no"}
{"compound": "CC1=NC(=Cc2cccc(Cl)c2)C(=O)N1n1c(-c2ccccc2)nc2ccccc2c1=O", "group": "no"}
{"compound": "O=C(O)c1ccc(Br)cc1C(=O)c1ccccc1", "group": "yes"}

Query: Item CC(C)(C)C(=O)OC12/C(=N/O)CCCCCC1c1ccccc12 (stereo unspecified) with growth inhibition of 20% or above?
Response: yes

Query: Textbook exercise: given the entry Clc1ccc(C2=C(c3ccccc3)C(c3ccc(Cl)cc3)N3C(=N[C@H]4CCCC[C@@H]43)N2)cc1 (stereo partly specified) , state whether its growth inhibition is greater than or equal to 20%.
Response: no

---

# testProtocol: NCI Yeast Anticancer Drug Screen. Data for the sgs1 mgt1 strain (AID 161);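 further: 0% = growth of cultures given vehicle only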
# conditionsUsed: S. cerevisiae sgs1 mgt1 strain, at 5.0 µM (retest, dose inferred, filed as 0.5), hits give high values
About 79,000 compounds went through this panel and 15% of them were active in at least one assay; those are over-represented in the sample as a whole.
A collection of compounds and their measured growth inhibition
Enter your answer as a number in %; do not include the unit.

// worked examples, growth inhibition included
{"compound": "COc1cc(O)c2c(c1)C(=O)C1=C(C2=O)[C@@H](C)OC(C)[C@H]1O (stereo partly specified)", "unitsText": "%", "growth inhibition": 8}
{"compound": "CC(C)SC(=S)S(=O)(=O)c1ccc(Cl)cc1", "unitsText": "%", "growth inhibition": 18}
{"compound": "CCCOc1ccc(/C=N/NC(N)=S)cc1", "unitsText": "%", "growth inhibition": 16}

growth inhibition for CCN1CCNc2c3cc(OC)ccc3nc3c([N+](=O)[O-])ccc1c23 is -9

Query CCC(Cl)COP(=O)(OCC(Cl)CC)OC(c1ccc(Cl)c(Cl)c1)P(=O)(OCC(Cl)CC)OCC(Cl)CC (stereo unspecified) yields growth inhibition of -1

GET /value?item= Nc1nnc2nc(CC(=O)c3ccccc3)/c(=C/C(=O)c3ccccc3)n12 &field=growth inhibition returns -23

---

# testProtocol: NCI Yeast Anticancer Drug Screen. Data for the mlh1 rad18 strain (AID 175)
# conditionsUsed: S. cerevisiae mlh1 rad18 strain growth inhibition; at 50.0 µM (retest, dose inferred, filed as 5.0)
This is part of a sample that, as a whole, favours compounds with a hit. Of some 79,000 tested, about 15% had one in any assay. Calls of active or inactive are those of the source. No stated cut-off is given here; in the data, active means growth inhibition above about 70%; inactive means the rest.
Permitted responses: active, inactive

{"compound": "CC(=O)OCC1OC(c2cccc3c2c2ccccc2n3S(=O)(=O)c2ccccc2)C(O)C1O (configuration not stated)", "group": "active"}
{"compound": "CN(C)Cc1ccc(C(C)(C)C)cc1-c1cc(C(C)(C)C)ccc1CN(C)C", "group": "inactive"}
{"compound": "O=C1C=CC(=O)N1CCCCCCN1C(=O)C=CC1=O", "group": "active"}
{"compound": "COC(=O)CSc1nc2[nH]c(SC)c(C(N)=O)c2c(=O)n1-c1ccccc1", "group": "inactive"}
{"compound": "CC1=C/C(=C\\c2ccc([N+](=O)[O-])o2)C(=O)O1", "group": "active"}

Query: Recorded call for CCCOC(=O)C(Br)C(Br)C(=O)OCCC (configuration not stated) ?
Response: active

Query: Identify the outcome logged in this assay for the compound shown: CCCCSc1nc2c([nH]1)c(=S)n(C)c(=S)n2C
Response: active

Query: Hi, do you know how CN(C)CCCNc1c2ccccc2nc2cccc([N+](=O)[O-])c12 came out in this test?
Response: active

---

Let's look at some compounds and their measured growth inhibition.
# testProtocol: NCI Yeast Anticancer Drug Screen. Data for the rad50 strain (AID 155);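 further: 0% = growth of vehicle-only cultures of the same strain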
# conditionsUsed: S. cerevisiae rad50 strain growth inhibition; at 50.0 µM; hits give high values
The panel holds about 79,000 compounds, 15% with a hit somewhere; the sample as a whole holds those more often.
Write the answer as a number in %, unit excluded.

{"compound": "CC(C)=NNc1ncnc2nc[nH]c12", "valueObserved": 12.5}
{"compound": "CC(C)(C)C(=O)OC(N)/C=C/c1ccccc1 (stereo unspecified)", "valueObserved": 1.75}
{"compound": "OC(CN1CCC(c2ccccc2)CC1)c1ccc(Br)cc1 (stereo unspecified)", "valueObserved": 87.7}
{"compound": "O=C1CCC(O)N1CN1C(=O)CCC1O (stereo unspecified)", "valueObserved": 36.1}
{"compound": "CN(C)CC/C(=N\\Nc1ccc(Cl)c(Cl)c1)c1ccccc1", "valueObserved": 99.5}

The measured growth inhibition associated with CCCCCCCCCCCCCCCCCCOS(=O)(=O)O (tested in a mixture with another compound) reads 56.4
